Experiment: Intrinsic clearance in mouse microsomes
Type: ADME, Microsome
Each entry below carries its reported CLint scaled.

Reference set (2 entries):
Compound	Result
C=CCn1c(=O)c2cnc(Nc3ccc(N4CCN(C)CC4)cc3)nc2n1-c1ccc2c(n1)[C@@](C)(O)CC2	< 8.6 mL/min/kg
C=CCn1c(=O)c2cnc(Nc3ccc(N4CCN(C)CC4)cc3)nc2n1-c1ccc2c(n1)[C@](C)(O)CC2	< 38 mL/min/kg

In: // returns reported CLint scaled for input C=CCn1c(=O)c2cnc(Nc3ccc(N4CCN(C)CC4)cc3)nc2n1-c1ccc2c(n1)C(O)CC2 (stereo in doubt; 8)
Out: < 38 mL/min/kg
